System: Staphylococcus aureus
Assay: Antimicrobial activity against methicillin-susceptible Staphylococcus aureus isolated from ICU patient urine assessed as resistant isolates by broth microdilution method
Type: functional
quantity.kind: Activity (%)
# output: bare number, implied unit %

CC[C@H]1OC(=O)[C@H](C)[C@@H](O[C@H]2C[C@@](C)(OC)[C@@H](O)[C@H](C)O2)[C@H](C)[C@@H](O[C@@H]2O[C@H](C)C[C@H](N(C)C)[C@H]2O)[C@](C)(OC)C[C@@H](C)C(=O)[C@H](C)[C@@H](O)[C@]1(C)O [CLARITHROMYCIN]	30
CC(=O)NC[C@H]1CN(c2ccc(N3CCOCC3)c(F)c2)C(=O)O1 [LINEZOLID]	0
CN[C@H](CC(C)C)C(=O)N[C@H]1C(=O)N[C@@H](CC(N)=O)C(=O)N[C@H]2C(=O)N[C@H]3C(=O)N[C@H](C(=O)N[C@H](C(=O)O)c4cc(O)cc(O)c4-c4cc3ccc4O)[C@H](O)c3ccc(c(Cl)c3)Oc3cc2cc(c3O[C@@H]2O[C@H](CO)[C@@H](O)[C@H](O)[C@H]2O[C@H]2C[C@](C)(N)[C@H](O)[C@H](C)O2)Oc2ccc(cc2Cl)[C@H]1O [VANCOMYCIN]	0

# input for lookup
Name the recorded Activity of the item C[C@@H](O)[C@H]1C(=O)N2C(C(=O)O)=C(S[C@@H]3CN[C@H](C(=O)N(C)C)C3)[C@H](C)[C@H]12 [MEROPENEM] in your answer.
0

---

Measured Activity, listed per entry for reference.
Test system: Escherichia coli
Assay: Antimicrobial activity against CTX-M ESBL producing Escherichia coli isolated from ICU patient blood assessed as resistant isolates by broth microdilution method
Type: functional
Enter your answer as a number in %; do not include the unit.

Examples with answers:
CO/N=C(\C(=O)N[C@@H]1C(=O)N2C(C(=O)[O-])=C(C[N+]3(C)CCCC3)CS[C@H]12)c1csc(N)n1	1.4
O=C(O)c1cn(C2CC2)c2cc(N3CCNCC3)c(F)cc2c1=O	23.3
Cc1nnc(SCC2=C(C(=O)O)N3C(=O)[C@@H](NC(=O)Cn4cnnn4)[C@H]3SC2)s1	21.9
CO/N=C(\C(=O)N[C@@H]1C(=O)N2C(C(=O)O)=C(CSc3nc(=O)c(O)nn3C)CS[C@H]12)c1csc(N)n1	5.5

Kindly review the next molecule as well.
Quickly give me recorded Activity for `C[C@@H](O)[C@H]1C(=O)N2C(C(=O)O)=C(S[C@@H]3CN[C@H](C(=O)N(C)C)C3)[C@H](C)[C@H]12`
0

---

Tested on: Pseudomonas aeruginosa
Experiment: Antimicrobial activity against carbapenem-resistant Pseudomonas aeruginosa assessed as resistant isolates by broth microdilution method
Format: functional
quantity.kind: Activity (%)
Number only, in %; omit the unit.

Solved entries (count: 4):
CO/N=C(\C(=O)N[C@@H]1C(=O)N2C(C(=O)[O-])=C(C[N+]3(C)CCCC3)CS[C@H]12)c1csc(N)n1	0
Cc1nnc(SCC2=C(C(=O)O)N3C(=O)[C@@H](NC(=O)Cn4cnnn4)[C@H]3SC2)s1	6.2
CN(C)c1cc(NC(=O)CNC(C)(C)C)c(O)c2c1C[C@H]1C[C@H]3[C@H](N(C)C)C(O)=C(C(N)=O)C(=O)[C@@]3(O)C(O)=C1C2=O	0.4
CO/N=C(\C(=O)N[C@@H]1C(=O)N2C(C(=O)O)=C(CSc3nc(=O)c(O)nn3C)CS[C@H]12)c1csc(N)n1	30

// below: Activity requested for another compound
Dear colleague, please send me the reported Activity for `O=C(O)c1cn(C2CC2)c2cc(N3CCNCC3)c(F)cc2c1=O` when you can.
4

---

Recorded Activity for the following compounds
Tested on: Staphylococcus aureus
Test: Antimicrobial activity against methicillin-resistant Staphylococcus aureus isolated from ICU patient respiratory tract assessed as resistant isolates by broth microdilution method
Format: functional
Mention the unit after the number when you answer.

Before answering, review these 4 worked examples.
CN(C)c1cc(NC(=O)CNC(C)(C)C)c(O)c2c1C[C@H]1C[C@H]3[C@H](N(C)C)C(O)=C(C(N)=O)C(=O)[C@@]3(O)C(O)=C1C2=O	0%
CCCCCCCCCC(=O)N[C@@H](Cc1c[nH]c2ccccc12)C(=O)N[C@H](CC(N)=O)C(=O)N[C@@H](CC(=O)O)C(=O)N[C@@H]1C(=O)NCC(=O)N[C@@H](CCCN)C(=O)N[C@@H](CC(=O)O)C(=O)N[C@H](C)C(=O)N[C@@H](CC(=O)O)C(=O)NCC(=O)N[C@H](CO)C(=O)N[C@@H]([C@H](C)CC(=O)O)C(=O)N[C@@H](CC(=O)c2ccccc2N)C(=O)O[C@@H]1C	0%
C[C@H]1COc2c(N3CCN(C)CC3)c(F)cc3c(=O)c(C(=O)O)cn1c23.C[C@H]1COc2c(N3CCN(C)CC3)c(F)cc3c(=O)c(C(=O)O)cn1c23.O	91.5%
CC(=O)NC[C@H]1CN(c2ccc(N3CCOCC3)c(F)c2)C(=O)O1	0%

Specify reported Activity for the compound shown: `CN[C@H](CC(C)C)C(=O)N[C@H]1C(=O)N[C@@H](CC(N)=O)C(=O)N[C@H]2C(=O)N[C@H]3C(=O)N[C@H](C(=O)N[C@H](C(=O)O)c4cc(O)cc(O)c4-c4cc3ccc4O)[C@H](O)c3ccc(c(Cl)c3)Oc3cc2cc(c3O[C@@H]2O[C@H](CO)[C@@H](O)[C@H](O)[C@H]2O[C@H]2C[C@](C)(N)[C@H](O)[C@H](C)O2)Oc2ccc(cc2Cl)[C@H]1O`
0%

---

System: Enterococcus sp.
Assay: Antimicrobial activity against vancomycin-resistant Enterococcus sp. assessed as resistant isolates by broth microdilution method
Type: functional
quantity.kind: Activity (%)
Write it as a number; the unit % goes unstated.

CC[C@H]1OC(=O)[C@H](C)[C@@H](O[C@H]2C[C@@](C)(OC)[C@@H](O)[C@H](C)O2)[C@H](C)[C@@H](O[C@@H]2O[C@H](C)C[C@H](N(C)C)[C@H]2O)[C@](C)(OC)C[C@@H](C)C(=O)[C@H](C)[C@@H](O)[C@]1(C)O	65.9
CCCCCCCCCC(=O)N[C@@H](Cc1c[nH]c2ccccc12)C(=O)N[C@H](CC(N)=O)C(=O)N[C@@H](CC(=O)O)C(=O)N[C@@H]1C(=O)NCC(=O)N[C@@H](CCCN)C(=O)N[C@@H](CC(=O)O)C(=O)N[C@H](C)C(=O)N[C@@H](CC(=O)O)C(=O)NCC(=O)N[C@H](CO)C(=O)N[C@@H]([C@H](C)CC(=O)O)C(=O)N[C@@H](CC(=O)c2ccccc2N)C(=O)O[C@@H]1C	0
CN(C)c1cc(NC(=O)CNC(C)(C)C)c(O)c2c1C[C@H]1C[C@H]3[C@H](N(C)C)C(O)=C(C(N)=O)C(=O)[C@@]3(O)C(O)=C1C2=O	0
C[C@H]1COc2c(N3CCN(C)CC3)c(F)cc3c(=O)c(C(=O)O)cn1c23.C[C@H]1COc2c(N3CCN(C)CC3)c(F)cc3c(=O)c(C(=O)O)cn1c23.O	51
O=C(O)c1cn(C2CC2)c2cc(N3CCNCC3)c(F)cc2c1=O	53.4
CN[C@H](CC(C)C)C(=O)N[C@H]1C(=O)N[C@@H](CC(N)=O)C(=O)N[C@H]2C(=O)N[C@H]3C(=O)N[C@H](C(=O)N[C@H](C(=O)O)c4cc(O)cc(O)c4-c4cc3ccc4O)[C@H](O)c3ccc(c(Cl)c3)Oc3cc2cc(c3O[C@@H]2O[C@H](CO)[C@@H](O)[C@H](O)[C@H]2O[C@H]2C[C@](C)(N)[C@H](O)[C@H](C)O2)Oc2ccc(cc2Cl)[C@H]1O	6.8

Now let's try a different one.
Report measured Activity on Enterococcus sp.; entry: `CC(=O)NC[C@H]1CN(c2ccc(N3CCOCC3)c(F)c2)C(=O)O1`
1.8

---

System: Staphylococcus epidermidis
Experiment: Antimicrobial activity against methicillin-susceptible Staphylococcus epidermidis isolated from ICU patient respiratory tract assessed as resistant isolates by broth microdilution method
Format: functional
The following compounds are shown together with reported Activity values.
Your answer should be a plain number; it is taken to be in %.

In the examples that follow, each entry is paired with its recorded Activity.
C[C@H]1COc2c(N3CCN(C)CC3)c(F)cc3c(=O)c(C(=O)O)cn1c23.C[C@H]1COc2c(N3CCN(C)CC3)c(F)cc3c(=O)c(C(=O)O)cn1c23.O	100
CN[C@H](CC(C)C)C(=O)N[C@H]1C(=O)N[C@@H](CC(N)=O)C(=O)N[C@H]2C(=O)N[C@H]3C(=O)N[C@H](C(=O)N[C@H](C(=O)O)c4cc(O)cc(O)c4-c4cc3ccc4O)[C@H](O)c3ccc(c(Cl)c3)Oc3cc2cc(c3O[C@@H]2O[C@H](CO)[C@@H](O)[C@H](O)[C@H]2O[C@H]2C[C@](C)(N)[C@H](O)[C@H](C)O2)Oc2ccc(cc2Cl)[C@H]1O	0
C[C@@H](O)[C@H]1C(=O)N2C(C(=O)O)=C(S[C@@H]3CN[C@H](C(=O)N(C)C)C3)[C@H](C)[C@H]12	0

Quote Activity with test system Staphylococcus epidermidis for `O=C(O)c1cn(C2CC2)c2cc(N3CCNCC3)c(F)cc2c1=O`
100

State, for Staphylococcus epidermidis, measured Activity of the compound listed here: `CO/N=C(\C(=O)N[C@@H]1C(=O)N2C(C(=O)[O-])=C(C[N+]3(C)CCCC3)CS[C@H]12)c1csc(N)n1`
0

State Activity on Staphylococcus epidermidis. Entry: `Cc1nnc(SCC2=C(C(=O)O)N3C(=O)[C@@H](NC(=O)Cn4cnnn4)[C@H]3SC2)s1`
0

Recall the reported Activity of `CO/N=C(\C(=O)N[C@@H]1C(=O)N2C(C(=O)O)=C(CSc3nc(=O)c(O)nn3C)CS[C@H]12)c1csc(N)n1` on Staphylococcus epidermidis and write it down.
0
